Field: melting point. Provide a value for each of the compounds that follow.

CN(CCN(O)C(N)=O)Cc1cccc(Oc2cc(Cl)cc(Cl)c2)c1 : 111 to 113 °C
NS(=O)(=O)Oc1cccc(C(=O)c2ccccc2)c1 : 72 to 74 °C
Ic1ccc2c(c1)ncn2-c1cccc(-c2ccccn2)c1 : 157 to 158 °C

Batch lookup, melting point per entry.
1. CC(C)(C)N1C(=O)c2cnc(-c3ccccc3)nc2Nc2ccccc21
2. N#Cc1c(CCC(=O)O)oc2cc(O)ccc2c1=O
3. Cc1csc(C(O)(c2nccs2)C(F)(F)F)n1 (centres undefined)
4. Nc1cc(C(c2cc(F)ccc2F)S(=O)(=O)c2ccc(Cl)nc2)c(Cl)cn1 (centres undefined)

["221 to 222 °C", "300 to 301 °C", "89 to 90 °C", "157 to 158 °C"]

* * *

Hi there, I'd appreciate the recorded melting point for every entry that follows.

CC(C)(C)CN1C(=O)[C@@H](CC=O)O[C@H](c2ccccc2Cl)c2cc(Cl)ccc21 (relative stereo) : 173 to 176 °C
NCC1CCc2[nH]c3cc(Cl)c(Cl)cc3c2C1 (stereo not given) : 156 to 158 °C
CCC(Cl)c1ccc(CCNS(=O)(=O)c2ccc(Cl)cc2)cc1 (stereo not given) : 90 to 91 °C
O=C(Cc1ccccc1)Nc1n[nH]c(-c2ccc(F)cc2)c1-c1ccncc1 : 289 to 290 °C

Using the record for N#CCSc1nc2cc(Cl)ccc2s1 , state its measured melting point.
96 to 97 °C

* * *

I'd appreciate it if you could supply melting point values for the items below.

Please look at the items below and tell me melting point for each one, in order.
1. COc1ccc(CCC(=O)NCCc2cccc(C)c2)cc1OC
2. Cc1c(Br)c2c(c(C)c1NC(=O)OC(C)(C)C)C(N1CCCC1)C(C)(C)O2 (stereo not given)
3. CCN(CCNC(=O)c1ccnc(F)c1)CCNC(=O)c1cnc2cc(I)ccc2n1
4. CCOC(=O)c1c(C)nc2nccnc2c1NCCCN(C)C
5. CCOn1c(C)nc(N2CCc3ccccc3CC2)c(C#N)c1=O

100 to 103 °C
128 to 130 °C
146 to 148 °C
42 to 44 °C
149 to 152 °C

* * *

measurement_type: melting point

CCOC(=O)c1c(Sc2ccccc2)n(C2CC2)c2c(F)c(F)c(F)cc2c1=O : 135 to 137 °C
CC(C)c1nc(C(C)(C)C)cc(-c2ccc(F)cc2)c1CO : 112 to 113 °C
O=C(Nc1ccc(S(=O)(=O)c2ncccn2)cc1)C(O)(C(F)F)C(F)F : 209 to 210 °C

Parameters: items (list). Returns: melting point for each item.
1. CC[Si](C#Cc1c2ccccc2c2ccc3c(C#C[Si](CC)(CC)CC)c4ccccc4c4ccc1c2c34)(CC)CC
2. c1cc(-c2noc(C3CC3)n2)cnn1
3. O=C(Nc1nccs1)c1cccc(-c2ccc3c(c2)C(Oc2ccc(Cl)cc2Cl)CC3)c1 (stereo not given)

1: 300 to 307 °C; 2: 115 to 117 °C; 3: 180 to 181 °C

Could I get melting point for every one of these entries?
1. COc1ccc(C(=O)Nc2ccccc2)cc1NS(=O)(=O)c1cccc(C)c1
2. CNC(=O)C1(C)Oc2c(C)c(C)c(O)c(C)c2CC1OC (stereo not given)

195 to 197 °C
139 to 140 °C

* * *

measurement_type: melting point

Solved entries:
Cc1ccc(C(=O)NCCN(C)C)cc1-n1c(C)cc(OCc2ccccc2CNC(=O)Nc2cc(C(C)(C)C)nn2-c2ccc(O)c(Cl)c2)c(Cl)c1=O : 181 to 182 °C
CC(C)[Si](C(C)C)(C(C)C)N1C=C2C=C(Br)OCC3=C2C(=C1)CC3N(C)C (centres undefined) : 119 to 121 °C
CC1(C)OC(=C(C#N)C#N)C(C#N)=C1C=Cc1cc2c3c(c1)CCCN3CCC2 : 243 °C

// switching to the query compound
Give me measured melting point, please, for this compound: O=c1[nH]ncc2[nH]c(-c3ccc(OC(F)F)c(OC4CCC4)c3)cc12
289 to 291 °C

* * *

measurement_type: melting point

State the recorded melting point for every item in the following list.
1. Clc1ccc(N=Cc2ccccc2)cc1Cl
2. Cc1cc2n(C)c3cc(Cl)ncc3c(=O)n2n1
3. CCOC(=O)c1cc(/C=C/c2ccc(O)cc2)ccc1O

["62 to 65 °C", "> 300 °C", "269 to 271 °C"]

Dear colleague, could you please provide melting point for the compounds listed below?
1. CN(C)N=C(N)Nc1c(Cl)cccc1Cl
2. N#Cc1ccc(-c2cc(-c3ccc(O)c(F)c3)nc3ccc(O)cc23)cc1
3. COc1ccccc1N1Sc2ccccc2C(c2ccccc2)C1=O (stereo not given)

1. > 280 °C
2. 266 to 267 °C
3. 133 °C

Hello, I would appreciate it if you could give melting point for each entry below.
1. CCCN(Cc1ccc(-c2ccccc2-c2nnn[nH]2)cc1)c1nn(C)cc1C(=O)O
2. C#CCn1c(-c2ccccc2)nc(O)c(CC)c1=O
3. CN1C(=O)C(CC(NC(=O)c2ccc(Cl)cc2)C(=O)O)c2ccccc21 (stereo not given)
4. CC(=O)O[C@]1(C)CC[C@@H]2C[C@H]1OO[C@@]2(C)CS(=O)(=O)c1ccccc1

1. 101 to 105 °C
2. 159 to 160 °C
3. 115 to 120 °C
4. 98 to 99 °C

* * *

measurement_type: melting point

O=C1c2ccc(O)cc2CCN1CCN1CCCC1 : 205 to 207 °C
C=C(C)C(=O)OCCCCCCS(=O)(=O)c1ccc(O)c(C)c1 : 84 to 85 °C
CCCCCCCC[C@H]1C[C@H]1CCCCCCCC(=O)NC(Cc1ccccc1)Cc1ccccc1 (relative stereo) : 40 to 45 °C

I need melting point for every entry listed below, if you could help.
1. COc1cc2c(cc1OC)N(C)C(=O)CN=C2c1cccc(C=O)c1
2. Cc1cccc(-n2nc(C)cc2-c2ccnc(S(C)(=O)=O)c2)c1
3. CCCC1=C(C#N)C(c2cccc3nsnc23)c2c[nH]nc2N1 (stereo not given)
4. CS(=O)(=O)c1ccc(-c2cccn2-c2ccccc2)cc1
5. C=Cc1cc2c(Cl)cc(F)c(-n3c(=O)cc(C(F)(F)F)n(C)c3=O)c2o1
6. COc1cccc(Sc2c(O)c3c(Cl)cc(Cl)cc3[nH]c2=O)c1
7. COc1ccc(C2=NOC(C)(c3nnc(S)n3N)C2)cc1OC1CCCC1 (stereo not given)
8. CCC(NC(=O)c1ccccc1)C(=O)OC1CCCCC1 (stereo not given)

1: 175 to 178 °C; 2: 140 to 142 °C; 3: 195 °C; 4: 140 to 142 °C; 5: 108 to 109 °C; 6: 269 to 270 °C; 7: 228 to 229 °C; 8: 60 to 63 °C

State the recorded melting point for every item in the following list.
1. O=C1CC(c2ccccc2)C(c2ccccc2)=NN1 (stereo not given)
2. CCCCCCC(=O)Nc1cccc2c1C(=O)c1ccccc1C2=O
3. CCN(CC)CCNC(=O)Cn1cc(-c2ccccc2)c(-c2ccccc2)n1
4. CCCCCN(C)C(=O)c1ccc(Cl)nn1
5. N#Cc1ccc(N2C(=O)NC3(CCS(=O)(=O)CC3)C2=O)cc1C(F)(F)F
6. COc1cc(C=CC(=O)Nc2cnc3ccc(C)cc3c2-c2ccccc2C)cc(OC)c1OC(C)=O

221 to 223 °C
133 °C
80 to 83 °C
98 to 101 °C
257 to 258 °C
242 to 243 °C

Parameter requested: melting point. Apply to each item below.
1. CC(OCc1cc2cc(C(F)(F)F)ccc2n1S(=O)(=O)c1ccccc1)C(=O)O (stereo not given)
2. CCCCCNC(=O)C(C)Cc1ccc2c(c1)c(Cc1ccc(C(=O)OC)cc1OC)cn2C (stereo not given)

1. 72 to 74 °C
2. 128 to 130 °C

Note melting point for the compound shown: CCc1nccn1Cc1ccc2c(c1)Cc1c(-c3ccsc3)n[nH]c1-2
129 to 132 °C

* * *

Provide the reported melting point of each item.

Some entries whose results are on file:
COc1ccc(/C=C/C(=O)c2cccc(O)c2)cc1OC : 138 to 139 °C
Cc1nc(-c2ccc(C(F)(F)F)cc2)sc1C(C)(C)Oc1cccc(COC(C)(C)C(=O)O)c1 : 136 °C
COc1cc(O)c(C(=O)C=Cc2ccco2)c(OC)c1 : 98.4 °C

Give melting point for all compounds that follow.
1. CN(c1cccc2cc(C3=NCC(CC(=O)NCCO)S3)[nH]c12)S(=O)(=O)c1cccs1 (stereo unspecified)
2. O=C1CCC2CC(O)C(=O)N12 (stereo unspecified)
3. Cn1c(=O)c(N=C=O)c(-c2ccccc2Cl)c2cc(Cl)ccc21
4. CCOC(=O)NC(=N)NC#N
5. CCc1noc(-c2ncc3[nH]c4cccc(CN5CCOCC5)c4c3c2COC)n1
6. CC(C)(C)OC(=O)N1CCN(c2ccc(S(=O)(=O)c3ccccc3)c([N+](=O)[O-])c2)CC1

["214 °C", "135 to 140 °C", "204 to 206 °C", "193 to 194 °C", "161 to 163 °C", "190 to 191 °C"]

Please give melting point, item by item, for the list that follows.
1. CCCC(=O)c1c[nH]c2c(COC(=O)c3ccccc3)cccc2c1=O
2. O=C1C=C(O)CC(CCc2ccc(O)cc2)(C2CCCCC2)O1 (stereo unspecified)
3. COc1ccc(-c2cnn3ccc(-c4ccc(OCCCNC(=O)OC(C)(C)C)c(OC)c4)nc23)cc1OC
4. CCOC(=O)c1c(N2CCN(C(=O)c3cccs3)CC2)c2cc(F)cnc2[nH]c1=O
5. COc1cc(COc2cc(C#N)n(-c3ccccc3)n2)ccc1OCc1nc(-c2ccccc2)oc1C
6. COc1ccc(C(=O)N2c3ccccc3C(N3CCSc4ccccc43)=CC2C)cc1OC (stereo unspecified)
7. Clc1cc(Cl)cc(N=Cc2ccccc2)c1
8. CCOC(=O)C1=C2NC=C(C(N)=O)C(=O)N2C(C)CC1 (stereo unspecified)

115 to 117 °C
52 to 58 °C
131 to 133 °C
124 to 133 °C
120 to 121 °C
166 to 168 °C
52 to 53 °C
251 °C

State recorded melting point for all listed compounds.
1. O=[N+]([O-])c1cnc(Sc2cnccn2)s1
2. COc1ccc(CC(=O)c2ccc(OC)cc2OC)cc1
3. O=C1Cc2ccccc2Oc2ccccc2C1
4. CNC(=O)C1SCSC(=NO)S1 (stereo unspecified)

["129 to 130 °C", "78.5 to 79.5 °C", "86 °C", "129 to 130 °C"]
